- STUDY SYSTEM: human TOR (Homo sapiens, UniProt P42345)
- Construct: FLAG
- ASSAY METHOD TEXT: mTOR enzyme assay (DELFIA, His6-S6K substrate)
- Assay type: biochemical
- EXPERIMENTAL CONTEXT: read-out: mTOR Kinase Avg. IC50
Doc: threshold 100 nM (exclusive). Items with IC50 beneath it return True; others return False.

[
  {
    "MOLECULE": "Cc1ccc2[nH]cc(C=C3Oc4cc(O)cc(O)c4C3=O)c2c1 [Example 170]",
    "CLASS NAME": "False"
  },
  {
    "MOLECULE": "CN1CCN(CCn2cc(/C=C3\\Oc4cc(O)cc(O)c4C3=O)c3c(-c4ccc(C(N)=O)cc4)cccc32)CC1 [Example 425]",
    "CLASS NAME": "False"
  },
  {
    "MOLECULE": "COc1ccc2c(c1)c(/C=C1\\Oc3c(ccc(O)c3Cl)C1=O)c(C)n2CCCN(C)C [Example 361]",
    "CLASS NAME": "False"
  },
  {
    "MOLECULE": "COc1ccc2c(c1)c(/C=C1\\Oc3ccc(NC(=O)Nc4ccc(OCCCCN(C)C)cc4)cc3C1=O)c(C)n2CCN1CCN(C)CC1 [Compound 674]",
    "CLASS NAME": "False"
  }
]

Prompt line: # strict comparison: is reported IC50 < 100 nM? input = COc1ccc2c(c1)c(/C=C1\Oc3cc(O)cc(O)c3C1=O)c(-c1cnn(C)c1)n2CC(=O)N(C)C [Example 329]
Response line: True

Prompt line: Could you please tell me whether IC50 recorded for COc1ccc2[nH]c(-c3c(C)nn(C)c3C)c(/C=C3\Oc4ccc(NC(=O)Nc5ccc(C(=O)N6CCN(C)C(C)C6)cc5)cc4C3=O)c2c1 (stereo not shown) [Compound 703] is less than 100 nM?
Response line: True

Prompt line: Dear reviewer, please state whether COc1ccc2c(c1)c(/C=C1\Oc3cc(O)cc(O)c3C1=O)c(C1CC1)n2CCN1CCC(O)C1 (stereo not shown) [Example 342] has IC50 strictly beneath 100 nM.
Response line: True

Prompt line: I'd appreciate it if you could check whether COc1ccc2c(c1)c(/C=C1\Oc3cc(O)c(C)cc3C1=O)c(C)n2CCCN(C)C [Example 459] has IC50 smaller than 100 nM.
Response line: False

Prompt line: Does the reported IC50 of the following molecule sit strictly below 100 nM? CCn1cc(/C=C2\Oc3ccc(NC(=O)Nc4ccc(C(=O)N(C)CCN(C)C)cc4)cc3C2=O)c2cc(OC)ccc21 [Compound 655]
Response line: False

Prompt line: In plain terms, does Cc1[nH]c2ccc([N+](=O)[O-])cc2c1C=C1Oc2cc(O)cc(O)c2C1=O [Example 162] come in under 100 nM for IC50?
Response line: False

Prompt line: Quick check: does COc1ccc2[nH]c(C3CCCCC3)c(/C=C3\Oc4ccc(NC(=O)Nc5ccc(C(=O)N6CCN(C)CC6)cc5)cc4C3=O)c2c1 [Compound 644] have IC50 under 100 nM?
Response line: True

---

Reported pIC50 values follow for various molecules
- STUDY SYSTEM: PI3K-gamma (Homo sapiens)
- Sequence (P48736 whole entry, species assumed): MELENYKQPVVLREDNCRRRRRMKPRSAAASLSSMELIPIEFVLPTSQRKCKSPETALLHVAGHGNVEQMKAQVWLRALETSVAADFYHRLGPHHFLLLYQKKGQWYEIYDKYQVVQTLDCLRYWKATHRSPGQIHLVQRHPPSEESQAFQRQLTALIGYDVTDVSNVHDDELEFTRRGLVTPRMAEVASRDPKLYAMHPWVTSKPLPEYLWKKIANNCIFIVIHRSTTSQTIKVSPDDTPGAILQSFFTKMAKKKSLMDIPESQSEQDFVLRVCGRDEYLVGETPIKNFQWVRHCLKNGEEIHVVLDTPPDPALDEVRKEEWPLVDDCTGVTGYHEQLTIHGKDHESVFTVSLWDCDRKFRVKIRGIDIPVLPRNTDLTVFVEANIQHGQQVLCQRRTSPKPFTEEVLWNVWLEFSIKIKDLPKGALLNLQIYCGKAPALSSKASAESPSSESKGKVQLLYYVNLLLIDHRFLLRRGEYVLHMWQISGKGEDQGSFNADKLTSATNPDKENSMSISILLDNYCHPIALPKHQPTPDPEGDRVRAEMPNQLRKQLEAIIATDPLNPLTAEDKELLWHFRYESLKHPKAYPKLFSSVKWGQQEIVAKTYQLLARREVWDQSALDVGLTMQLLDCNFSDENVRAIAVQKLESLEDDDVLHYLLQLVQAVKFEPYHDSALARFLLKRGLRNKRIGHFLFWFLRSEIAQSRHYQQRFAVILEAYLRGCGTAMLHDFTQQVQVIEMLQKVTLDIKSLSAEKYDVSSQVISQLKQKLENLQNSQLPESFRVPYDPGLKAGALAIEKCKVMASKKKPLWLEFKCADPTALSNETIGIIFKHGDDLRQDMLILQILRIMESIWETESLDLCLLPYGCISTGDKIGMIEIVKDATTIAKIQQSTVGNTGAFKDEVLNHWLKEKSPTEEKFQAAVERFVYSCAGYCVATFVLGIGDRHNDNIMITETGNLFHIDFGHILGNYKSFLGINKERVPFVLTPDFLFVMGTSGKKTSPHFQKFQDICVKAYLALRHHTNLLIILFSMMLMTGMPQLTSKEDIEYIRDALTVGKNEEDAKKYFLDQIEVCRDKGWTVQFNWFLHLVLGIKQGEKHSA
- ASSAY METHOD TEXT: PI3K-gamma fluorescence polarization assay
- Assay type: biochemical
- EXPERIMENTAL CONTEXT: PI3Kγ Avg. IC50
pIC50: −log10 of the molar value.

Below are worked cases with known answers.
[
  {
    "COMPOUND STRUCTURE STRING": "CCc1cc(OC)cc2c(/C=C3\\Oc4cccc(O)c4C3=O)cn(CCCC#N)c12",
    "pIC50": "< 5.00"
  },
  {
    "COMPOUND STRUCTURE STRING": "N#CCCCn1cc(C=C2Oc3cc(O)cc(O)c3C2=O)c2cc(F)ccc21",
    "pIC50": "< 5.00"
  }
]

Kindly consider the entry below.
Prompt line: Answer with pIC50 of CNC(=O)Nc1ccc2c(c1)C(=O)/C(=C/c1c(C#N)n(CCN3CCN(C)CC3)c3ccc(OC)cc13)O2 measured for PI3K-gamma (Homo sapiens).
Response line: 5.56

---

- STUDY SYSTEM: PI3K-alpha (Homo sapiens)
- ASSAY METHOD TEXT: PI3K-alpha fluorescence polarization assay
- Format: biochemical
- EXPERIMENTAL CONTEXT: read-out: PI3Kα Avg. IC50
VALUE KIND: IC50 (nM)
Number only, in nM; omit the unit.

Recorded results for 3 molecules are shown here.
[
  {
    "MOLECULE": "Cn1cc(C=C2Oc3ccccc3C2=O)c2ccccc21 [Example 4]",
    "IC50 (nM)": 12300
  },
  {
    "MOLECULE": "COc1cccc2c1O/C(=C\\c1c(-c3ccc(F)cc3)[nH]c3ccccc13)C2=O [Example 37]",
    "IC50 (nM)": 2350
  },
  {
    "MOLECULE": "O=C1C(=Cc2c[nH]c3cc(Cl)ccc23)Oc2cc(O)cc(O)c21 [Example 172]",
    "IC50 (nM)": 936
  }
]

Prompt line: Quote IC50 reported for COc1ccc2c(c1)c(/C=C1\Oc3cc(O)cc(Br)c3C1=O)c(C)n2CCN1CCN(C)CC1 [Example 429] please.
Response line: 67.5

Prompt line: Return reported IC50. Input molecule: COc1ccc2c(c1)c(/C=C1\Oc3cc(O)ccc3C1=O)c(C1CCCC1)n2CCN1CCN(C)CC1 [Example 411]
Response line: 11.5

---

Below, each entry is listed alongside its reported pIC50.
- STUDY SYSTEM: PI3K-alpha (Homo sapiens)
- ASSAY METHOD TEXT: PI3K-alpha fluorescence polarization assay
- Format: biochemical
- EXPERIMENTAL CONTEXT: read-out: PI3Kα Avg. IC50
pIC50: −log10 of the molar value.

Consider the worked cases shown below.
[
  {
    "COMPOUND": "COc1ccc2[nH]c(-c3cccnc3)c(C=C3Oc4cc(O)cc(O)c4C3=O)c2c1 [Example 91]",
    "pIC50": "> 8.66"
  },
  {
    "COMPOUND": "O=C1/C(=C/c2cn(Cc3ccccc3)c3ccccc23)Oc2ccccc21 [Example 25]",
    "pIC50": "< 5.00"
  },
  {
    "COMPOUND": "COc1ccc2[nH]cc(C=C3Oc4cc(SC)ccc4C3=O)c2c1 [Example 434]",
    "pIC50": "< 5.00"
  }
]

Prompt line: Using the record for COc1cccc2c1O/C(=C\c1c(-c3ccc4ccccc4c3)[nH]c3ccccc13)C2=O [Example 36] , state its measured pIC50.
Response line: < 5.00

Prompt line: Supply pIC50 value. Item: O=C1C(=Cc2c[nH]c3ccccc23)Oc2cc(O)ccc21 [Example 5]
Response line: < 5.00

Prompt line: State its pIC50: COc1ccc2[nH]c(-c3ccccc3)c(/C=C3\Oc4cc(O)ccc4C3=O)c2c1 [Example 310]
Response line: > 8.68

Prompt line: Please supply the value of reported pIC50 for the item COc1ccc2[nH]c(-c3cnn(C)c3)c(/C=C3\Oc4cc(O)cc(O)c4C3=O)c2c1 [Example 330]
Response line: > 8.74

---

- STUDY SYSTEM: PI3K-alpha (Homo sapiens)
- ASSAY METHOD TEXT: PI3K-alpha fluorescence polarization assay
- Assay type: biochemical
- EXPERIMENTAL CONTEXT: read-out: PI3Kα Avg. IC50
pIC50: −log10 of the molar value.
VALUE KIND: pIC50

Prompt line: Specify reported pIC50 for the molecule shown: COc1cccc2c1O/C(=C\c1c[nH]c3ccc(Br)cc13)C2=O
Response line: < 5.00

Prompt line: Output measured pIC50 for this item: O=C1C(=Cc2c[nH]c3ccc(Br)cc23)Oc2cccc(O)c21
Response line: < 5.00

Prompt line: Give the reported pIC50 for this molecule. COc1ccc2[nH]cc(C=C3Oc4c(O)cccc4C3=O)c2c1
Response line: < 5.00

---

- STUDY SYSTEM: PI3K-alpha (Homo sapiens, UniProt P42336)
- Sequence (P42336 whole entry, species assumed): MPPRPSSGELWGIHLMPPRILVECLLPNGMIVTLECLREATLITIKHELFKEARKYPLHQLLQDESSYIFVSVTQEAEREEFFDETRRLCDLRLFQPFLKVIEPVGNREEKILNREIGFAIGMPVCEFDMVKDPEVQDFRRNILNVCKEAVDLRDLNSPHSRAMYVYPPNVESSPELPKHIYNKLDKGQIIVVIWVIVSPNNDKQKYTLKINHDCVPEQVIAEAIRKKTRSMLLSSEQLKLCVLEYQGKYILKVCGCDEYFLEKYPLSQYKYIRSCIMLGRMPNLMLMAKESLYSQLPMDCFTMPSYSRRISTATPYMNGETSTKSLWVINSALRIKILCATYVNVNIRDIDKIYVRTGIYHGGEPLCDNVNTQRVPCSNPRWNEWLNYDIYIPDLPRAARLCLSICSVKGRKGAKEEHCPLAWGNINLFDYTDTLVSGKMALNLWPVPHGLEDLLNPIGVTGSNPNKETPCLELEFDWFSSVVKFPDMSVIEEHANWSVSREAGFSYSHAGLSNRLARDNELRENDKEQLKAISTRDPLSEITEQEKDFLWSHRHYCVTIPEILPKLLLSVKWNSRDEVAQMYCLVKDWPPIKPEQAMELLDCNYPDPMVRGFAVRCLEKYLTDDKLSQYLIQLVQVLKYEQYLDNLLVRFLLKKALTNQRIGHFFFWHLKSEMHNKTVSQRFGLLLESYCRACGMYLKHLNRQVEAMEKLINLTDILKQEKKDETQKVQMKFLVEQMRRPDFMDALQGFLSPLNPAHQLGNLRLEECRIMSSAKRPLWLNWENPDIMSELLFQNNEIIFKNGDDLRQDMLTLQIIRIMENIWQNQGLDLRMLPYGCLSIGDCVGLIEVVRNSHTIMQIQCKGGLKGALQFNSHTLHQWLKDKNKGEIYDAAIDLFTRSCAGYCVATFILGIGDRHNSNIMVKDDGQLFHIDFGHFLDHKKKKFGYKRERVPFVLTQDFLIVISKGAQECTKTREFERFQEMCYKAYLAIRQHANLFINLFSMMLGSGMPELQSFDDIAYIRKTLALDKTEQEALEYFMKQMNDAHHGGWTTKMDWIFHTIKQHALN
- Sequence (P27986 whole entry partner, species assumed): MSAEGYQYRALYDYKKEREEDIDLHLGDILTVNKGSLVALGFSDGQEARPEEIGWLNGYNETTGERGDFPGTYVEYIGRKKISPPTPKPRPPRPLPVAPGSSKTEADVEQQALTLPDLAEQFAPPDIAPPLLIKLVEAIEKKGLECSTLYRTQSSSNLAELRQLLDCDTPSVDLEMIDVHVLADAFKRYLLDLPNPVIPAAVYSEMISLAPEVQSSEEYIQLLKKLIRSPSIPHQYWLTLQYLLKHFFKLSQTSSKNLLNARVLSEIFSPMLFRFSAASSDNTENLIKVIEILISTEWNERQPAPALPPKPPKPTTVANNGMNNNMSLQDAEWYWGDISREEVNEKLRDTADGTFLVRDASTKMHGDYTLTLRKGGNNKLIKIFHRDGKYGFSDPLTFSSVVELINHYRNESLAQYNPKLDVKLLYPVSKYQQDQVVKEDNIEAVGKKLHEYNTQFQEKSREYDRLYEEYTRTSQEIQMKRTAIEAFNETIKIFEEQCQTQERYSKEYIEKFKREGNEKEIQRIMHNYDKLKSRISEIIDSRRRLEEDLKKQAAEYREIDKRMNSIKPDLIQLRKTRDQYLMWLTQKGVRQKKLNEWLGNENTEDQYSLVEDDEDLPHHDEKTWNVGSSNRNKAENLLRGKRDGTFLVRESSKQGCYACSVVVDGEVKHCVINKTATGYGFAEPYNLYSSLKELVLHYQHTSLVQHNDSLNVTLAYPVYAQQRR
- ASSAY METHOD TEXT: PI3K-alpha fluorescence polarization assay
- Type: biochemical
- EXPERIMENTAL CONTEXT: read-out: PI3Kα Avg. IC50
VALUE KIND: IC50 (µM)
Form entry: value (µM) — number only.

[
  {
    "COMPOUND STRUCTURE STRING": "COc1ccc2c(c1)c(/C=C1\\Oc3ccc(NC(=O)Nc4ccc(NCCN(C)C)cc4)cc3C1=O)c(C)n2CCN1CCN(C)CC1",
    "UNIT NAME": "µM",
    "ENDPOINT VALUE": 0.007
  }
]

Prompt line: Provide measured IC50 value, entry: Cc1ccc2[nH]cc(C=C3Oc4cc(O)cc(O)c4C3=O)c2c1
Response line: 5.77

Data credit: patent US20090311217A1
